Experiment: self-splicing fitness, log relative to wild type (ln ratio); higher = more splicing; Tetrahymena group I intron in knt gene, E. coli kanamycin selection, DiMSum; sequences stand for … in CUCUCU…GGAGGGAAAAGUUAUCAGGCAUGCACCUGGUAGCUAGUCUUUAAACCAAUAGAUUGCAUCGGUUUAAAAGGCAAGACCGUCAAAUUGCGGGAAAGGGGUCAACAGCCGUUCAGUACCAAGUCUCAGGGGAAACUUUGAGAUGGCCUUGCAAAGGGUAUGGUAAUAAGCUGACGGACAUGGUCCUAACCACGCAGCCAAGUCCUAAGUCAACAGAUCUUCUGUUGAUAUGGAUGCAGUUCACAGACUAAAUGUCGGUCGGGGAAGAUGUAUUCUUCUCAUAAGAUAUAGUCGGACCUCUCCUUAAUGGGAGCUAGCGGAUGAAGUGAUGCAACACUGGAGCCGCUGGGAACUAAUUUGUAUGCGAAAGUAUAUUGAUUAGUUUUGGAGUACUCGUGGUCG;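 note: selection with 25 µg/mL kanamycin versus none on LB agar overnight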
Settings: 37 °C
Answer Not met if self-splicing fitness (ln) is under -2, and Met if it is -2 or more.

> print(dat)
           sequence.data      cat
 1  UUCCAGCAAUAUUACGGACA      Met
 2  AAACAGCAAUAUUACGGUCG      Met
 3  AUGCAGCAAUAUUACGUCUA      Met
 4  UCCAAGCAAUAUUACGUACC  Not met
 5  GAUUAGCAAUAUUACGGUAA      Met
 6  UGUGAGCAAUAUUACGCAGG      Met
 7  GUCAAGCAAUAUUACGUGCA      Met
 8  CGCUAGCAAUAUUACGGCCG      Met
 9  GCUAAGCAAUAUUACGGGGU  Not met
10  AGCAAGCAAUAUUACGACGA      Met
11  UAUCAGCAAUAUUACGUAGG      Met
12  CUGCAGCAAUAUUACGGACU      Met
13  CUAUAGCAAUAUUACGAGAG  Not met
14  UCCCAGCAAUAUUACGUAUC      Met
15  UCACAGCAAUAUUACGUCUA      Met
16  GGGCAGCAAUAUUACGGUUG      Met
17  CUCUAGCAAUAUUACGUUCU  Not met
18  AAGCAGCAAUAUUACGACGA      Met
19  UAAGAGCAAUAUUACGUACG      Met
20  AUCAAGCAAUAUUACGGAGU      Met
21  AGUCAGCAAUAUUACGAGGA      Met
22  GUCUAGCAAUAUUACGGUAC      Met
23  CAUCAGCAAUAUUACGAAUU      Met
24  GGGAAGCAAUAUUACGUGAA      Met

Source of measurements: the supplement of paper PMC7877785
